Cited source: ChEMBL document CHEMBL1201862

Target: Corticotropin-releasing factor receptor 2/Corticotropin-releasing factor-binding protein (Homo sapiens, UniProt P24387+Q13324)
Sequence (Q13324 whole entry): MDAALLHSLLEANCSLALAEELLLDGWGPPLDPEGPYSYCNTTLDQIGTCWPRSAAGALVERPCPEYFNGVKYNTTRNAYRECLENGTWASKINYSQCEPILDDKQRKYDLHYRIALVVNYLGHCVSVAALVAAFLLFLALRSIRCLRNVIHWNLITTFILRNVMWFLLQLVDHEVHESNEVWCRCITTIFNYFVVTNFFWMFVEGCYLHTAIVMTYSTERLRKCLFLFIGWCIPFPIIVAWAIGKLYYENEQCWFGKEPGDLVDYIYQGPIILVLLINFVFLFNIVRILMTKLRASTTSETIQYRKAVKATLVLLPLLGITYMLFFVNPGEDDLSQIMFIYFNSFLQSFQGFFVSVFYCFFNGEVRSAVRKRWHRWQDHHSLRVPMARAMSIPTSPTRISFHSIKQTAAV
Sequence (P24387 whole entry): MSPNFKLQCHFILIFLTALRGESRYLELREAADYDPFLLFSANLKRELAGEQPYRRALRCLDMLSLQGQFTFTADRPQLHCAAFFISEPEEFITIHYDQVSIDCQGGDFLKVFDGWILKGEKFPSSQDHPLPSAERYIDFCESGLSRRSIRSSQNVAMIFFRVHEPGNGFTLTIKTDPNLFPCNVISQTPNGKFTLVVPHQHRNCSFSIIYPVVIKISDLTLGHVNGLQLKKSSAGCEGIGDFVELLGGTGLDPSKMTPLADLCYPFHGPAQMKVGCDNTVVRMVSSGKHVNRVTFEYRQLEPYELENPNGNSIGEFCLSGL
Assay: Dose Response confirmation of uHTS hits for small molecule antagonists of the CRF-binding protein and CRF-R2 receptor complex.
Assay type: functional
Conditions: read-out: IC50_Mean
The source made the active and inactive calls. Cut-off read from the data, not from the text of the source: actives have a measured IC50 and inactives only a lower limit.
Bench note: report the call from label 1 (active), label 0 (inactive)

O=C1Nn2c(nc3c(c2=O)CCCC3)/C1=N/Nc1cccc(Cl)c1: label 1
COc1cc2c(cc1NC(=O)COC(=O)CNC(=O)c1ccccc1)oc1ccccc12: label 0
COc1ccc(CCn2c(=O)c3cccnc3n(Cc3cccc([N+](=O)[O-])c3)c2=O)cc1OC: label 0
O=C(NCc1cccc(Cl)c1)C1CCC(=O)N(CC2CCCCC2)C1 (configuration not stated): label 0

Enquiry: Name the outcome recorded for COc1ccccc1N1CCN(C(c2ccc(Cl)cc2)c2nnnn2C(C)(C)C)CC1 (configuration not stated) in the assay.
Return: label 0

Enquiry: Name the outcome recorded for C=CCN(CC(=O)NCc1ccccc1)C(=O)c1csnn1 in the assay.
Return: label 0

Enquiry: Name the outcome recorded for CC(C)(C)OC(=O)NC(Cc1ccccc1)C(=O)N1CCC(C(=O)NCC(=O)Nc2ccc(F)cc2)CC1 (configuration not stated) in the assay.
Return: label 0
